These entries and their values trace back to patent US7470715B2.

Catalogue of EC50 readings, one per entry.
Molecular target: ligand binding domain of the estrogen receptor alpha chain (ERαLBD) (Homo sapiens)
Sequence (P03372 311-547 limits assumed): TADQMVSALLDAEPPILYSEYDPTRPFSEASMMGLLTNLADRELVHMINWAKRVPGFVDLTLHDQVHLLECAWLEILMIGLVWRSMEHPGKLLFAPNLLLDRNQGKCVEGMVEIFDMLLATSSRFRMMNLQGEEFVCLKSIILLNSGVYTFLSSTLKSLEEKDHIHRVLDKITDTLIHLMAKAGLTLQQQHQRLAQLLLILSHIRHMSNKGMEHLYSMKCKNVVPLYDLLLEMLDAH
Assay: ER agonist cell assay (ERα), Huh-7 co-transfection, luciferase
Details: Huh-7 cells co-transfected with pG5luc and ERαLBD; overnight incubation; luciferase
Return type: number; implicit unit nM.

Query (compound): `CC(C)OCC1(c2onc(-c3ccc(O)cc3)c2-c2ccccc2)CC1` ; field requested: EC50
97.1

Query (compound): `CCCCOC(=O)C1(c2onc(-c3ccc(O)cc3)c2-c2ccccc2)CC1` ; field requested: EC50
29.3

Query (compound): CC(C)C(C)NCC1(c2onc(-c3ccc(O)cc3)c2-c2ccccc2)CC1 (racemic) ; field requested: EC50
12.6

Query (compound): `CC(C)(C)COC(=O)C1(c2onc(-c3ccc(O)cc3)c2-c2ccccc2)CC1` ; field requested: EC50
33.8

Query (compound): CCC(O)C1(c2onc(-c3ccc(O)cc3)c2-c2ccccc2)CC1 (racemic) ; field requested: EC50
22.4

Query (compound): `Oc1ccc(-c2noc(C3CC3)c2-c2ccccc2)cc1` ; field requested: EC50
171

Query (compound): `O=C(OCC1CCC1)C1(c2onc(-c3ccc(O)cc3)c2-c2ccccc2)CC1` ; field requested: EC50
13.6

Query (compound): CC(C)C(O)C1(c2onc(-c3ccc(O)cc3)c2-c2ccccc2)CC1 (racemic) ; field requested: EC50
34.4

Query (compound): `Oc1ccc(-c2noc(C3(COc4c(F)cccc4OC(F)(F)F)CC3)c2-c2ccccc2)cc1` ; field requested: EC50
45.9

###

Target: ligand binding domain of the estrogen receptor alpha chain (ERαLBD) (Homo sapiens)
Assay: ER agonist cell assay (ERα), Huh-7 co-transfection, luciferase
Conditions: Huh-7 cells co-transfected with pG5luc and ERαLBD; overnight incubation; luciferase
assay_metric: pEC50
// pEC50 here means minus log10 of the molar concentration (mol/L)

Some compounds with recorded pEC50:
Query (compound): `COCC1(c2onc(-c3ccc(O)cc3)c2-c2ccccc2)CC1` ; field requested: pEC50
7.59

Query (compound): `CC(C)(O)C1(c2onc(-c3ccc(O)cc3)c2-c2ccccc2)CC1` ; field requested: pEC50
6.80

Query (compound): `CC[C@@H](O)C1(c2onc(-c3ccc(O)cc3)c2-c2ccccc2)CC1` ; field requested: pEC50
7.50

Next compound, please.
Query (compound): `OCC1(c2onc(-c3ccc(O)c(F)c3)c2-c2ccccc2)CC1` ; field requested: pEC50
6.01

###

Molecular target: ligand binding domain of the estrogen receptor beta chain (ERβLBD) that contained a point mutation at amino acid residue 418 (pm418) (Homo sapiens)
Assay: ER agonist cell assay (ERβ), Huh-7 co-transfection, luciferase
Settings: Huh-7 cells co-transfected with pG5luc and ERβLBD(pm418); overnight incubation; luciferase
pEC50: −log10 of the molar value.
assay_metric: pEC50

Some compounds with recorded pEC50:
Query (compound): `COCCOC(=O)C1(c2onc(-c3ccc(O)cc3)c2-c2ccccc2)CC1` ; field requested: pEC50
< 5.00

Query (compound): CC(C)C(C)NCC1(c2onc(-c3ccc(O)cc3)c2-c2ccccc2)CC1 (racemic) ; field requested: pEC50
< 5.00

Next compound, please.
Query (compound): `CCOc1ccccc1OCC1(c2onc(-c3ccc(O)cc3)c2-c2ccccc2)CC1` ; field requested: pEC50
< 5.00

###

Molecular target: ligand binding domain of the estrogen receptor beta chain (ERβLBD) that contained a point mutation at amino acid residue 418 (pm418) (Homo sapiens)
Assay: ER agonist cell assay (ERβ), Huh-7 co-transfection, luciferase
Format: cell-based
Details: percent of the maximum estradiol fold change; Huh-7, pG5luc and ERβLBD(pm418)
assay_metric: ERβ % of Max E2 Response

Some compounds with recorded ERβ % of Max E2 Response:
Query (compound): O=C(OCc1ccccc1)C1(c2onc(-c3ccc(O)cc3)c2-c2ccccc2)CC1 [Example 92] ; field requested: ERβ % of Max E2 Response
>1.04%

Query (compound): CCOc1ccc(-c2nnc(C3(c4onc(-c5ccc(O)cc5)c4-c4ccccc4)CC3)o2)cc1 [Example 119] ; field requested: ERβ % of Max E2 Response
>3.74%

Query (compound): Oc1ccc(-c2noc(C3(COc4c(F)cccc4OC(F)(F)F)CC3)c2-c2ccccc2)cc1 [Example 5] ; field requested: ERβ % of Max E2 Response
>4.51%

Query (compound): COc1cccc(F)c1OCC1(c2onc(-c3ccc(O)cc3)c2-c2ccccc2)CC1 [Example 7] ; field requested: ERβ % of Max E2 Response
>0.485%

Query (compound): CCOc1ccccc1OCC1(c2onc(-c3ccc(O)cc3)c2-c2ccccc2)CC1 [Example 4] ; field requested: ERβ % of Max E2 Response
>0.727%

New cases:
Query (compound): CC(C)COC(=O)C1(c2onc(-c3ccc(O)cc3)c2-c2ccccc2)CC1 [Example 60] ; field requested: ERβ % of Max E2 Response
>3.71%

###

Biological target: ligand binding domain of the estrogen receptor beta chain (ERβLBD) that contained a point mutation at amino acid residue 418 (pm418) (Homo sapiens, UniProt Q92731)
Test: ER agonist cell assay (ERβ), Huh-7 co-transfection, luciferase
Type: cell-based
Details: percent of the maximum estradiol fold change; Huh-7, pG5luc and ERβLBD(pm418)
Catalogue of ERβ % of Max E2 Response readings, one per entry.

Some compounds with recorded ERβ % of Max E2 Response:
Query (compound): Oc1ccc(-c2noc(C3(c4nnc(-c5ccc(O)cc5O)o4)CC3)c2-c2ccccc2)cc1 [Example 118] ; field requested: ERβ % of Max E2 Response
>0.789%

Query (compound): CCOc1ncccc1OCC1(c2onc(-c3ccc(O)cc3)c2-c2ccccc2)CC1 [Example 6] ; field requested: ERβ % of Max E2 Response
>3.19%

Query (compound): CC(C)C(C)NCC1(c2onc(-c3ccc(O)cc3)c2-c2ccccc2)CC1 (racemic) [Example 24] ; field requested: ERβ % of Max E2 Response
>0.860%

Query (compound): Oc1ccc(-c2nnc(C3(c4onc(-c5ccc(O)cc5)c4-c4ccccc4)CC3)o2)cc1 [Example 124] ; field requested: ERβ % of Max E2 Response
>0.539%

Query (compound): Oc1ccc(-c2noc(C3(c4nnc(-c5cccc(O)c5)o4)CC3)c2-c2ccccc2)cc1 [Example 125] ; field requested: ERβ % of Max E2 Response
>0.535%

New cases:
Query (compound): CC(C)(C)COC(=O)C1(c2onc(-c3ccc(O)cc3)c2-c2ccccc2)CC1 [Example 93] ; field requested: ERβ % of Max E2 Response
>0.813%

Query (compound): COCCOC(=O)C1(c2onc(-c3ccc(O)cc3)c2-c2ccccc2)CC1 [Example 88] ; field requested: ERβ % of Max E2 Response
>3.41%

Query (compound): O=C(OC1CCCC1)C1(c2onc(-c3ccc(O)cc3)c2-c2ccccc2)CC1 [Example 89] ; field requested: ERβ % of Max E2 Response
>2.93%

Query (compound): Oc1ccc(-c2noc(C3(c4nnc(-c5ccccc5O)o4)CC3)c2-c2ccccc2)cc1 [Example 122] ; field requested: ERβ % of Max E2 Response
>0.756%

Query (compound): O=C(OCC1CCC1)C1(c2onc(-c3ccc(O)cc3)c2-c2ccccc2)CC1 [Example 95] ; field requested: ERβ % of Max E2 Response
>0.728%

Query (compound): COc1cccc(-c2nnc(C3(c4onc(-c5ccc(O)cc5)c4-c4ccccc4)CC3)o2)c1 [Example 123] ; field requested: ERβ % of Max E2 Response
>0.658%

Query (compound): CCCCOC(=O)C1(c2onc(-c3ccc(O)cc3)c2-c2ccccc2)CC1 [Example 94] ; field requested: ERβ % of Max E2 Response
>0.800%
